- Test system: SW-620 colon
- Assay Details: NCI tumour cell line growth inhibition, 48 h
Items are presented alongside their recorded TGI.

Consider the reported TGI for these compounds:
Query: # get_value(readout= TGI, system= SW-620 colon) for `Cc1ccc(-n2c3c(c4c(CN5CCCCC5)c(O)ccc42)CCc2ccccc2C3=O)cc1`
Response: > 100 µM

Query: # get_value(readout= TGI, system= SW-620 colon) for `Nc1ccc2c(c1)C(=O)c1ccc(F)cc1-2`
Response: > 100 µM

Query: # get_value(readout= TGI, system= SW-620 colon) for `Fc1ccc(-c2nc(-c3nc4ccc(Cl)cc4[nH]3)cc3c2[nH]c2ccccc23)cc1`
Response: 19.2 µM

Query: # get_value(readout= TGI, system= SW-620 colon) for `O=C1CCCCC/C=C2/CC[C@H](Sc3ccccc3)[C@@H]12`
Response: > 100 µM

Next:
Query: # get_value(readout= TGI, system= SW-620 colon) for `O=C(Nc1ccc(Cl)cc1)c1cc(S(=O)(=O)Nc2n[nH]c(=O)[nH]2)c(SSc2cc(Cl)c(C(=O)Nc3ccc(Cl)cc3)cc2S(=O)(=O)Nc2n[nH]c(=O)[nH]2)cc1Cl`
Response: > 100 µM

Query: # get_value(readout= TGI, system= SW-620 colon) for `O=C(Oc1cccnc1)c1ccccc1Nc1ccnc(C(F)(F)F)c1`
Response: > 100 µM
